target system: T1, human CCR8 (human, UniProt P51685 1-355)
T1 construct: whole, on cells; also called hCCR8
T1 sequence (P51685 whole entry): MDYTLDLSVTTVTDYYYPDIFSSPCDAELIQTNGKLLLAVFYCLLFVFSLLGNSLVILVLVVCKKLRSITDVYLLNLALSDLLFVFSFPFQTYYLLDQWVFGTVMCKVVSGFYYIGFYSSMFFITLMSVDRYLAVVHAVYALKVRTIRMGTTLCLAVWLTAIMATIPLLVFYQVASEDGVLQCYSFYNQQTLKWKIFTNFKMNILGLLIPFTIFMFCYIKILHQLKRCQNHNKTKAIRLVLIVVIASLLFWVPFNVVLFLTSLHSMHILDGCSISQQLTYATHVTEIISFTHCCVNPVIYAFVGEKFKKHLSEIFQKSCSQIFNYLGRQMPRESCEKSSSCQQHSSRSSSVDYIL
method summary: FACS on HEK293-human CCR8 cells
endpoint name: pEC50
Answers are plain numbers, as −log10 of the molar value.

The following binders each have a reported value; give each one's pEC50.
1. Hu149-5 (antibody, V domains shown, humanized IgG) VH: EVQLVESGGGLVQPGGSLKLSCAASGFTFNTYAMNWVRQASGKGLEWVGRIRSKSNFYATYYAASVKGRFTISRDDSKNTAYLQMNSLKTEDTAVYYCVRGRDYGSSYAMDYWGQGTLVTVSS VL: DIVMTQSPLSLPVTPGEPASISCRSSKSLLHSNANTYLYWYLQKPGQSPQLLIYRMSNLASGVPDRFSGSGSGTDFTLKISRVEAEDVGVYYCMQHLEYPLTFGGGTKVELK
2. Hu149-2 (antibody, V domains shown, humanized IgG) VH: EVQLVESGGGLVQPGGSLKLSCAASGFTFNTYAMHWVRQASGKGLEWVGRIRSKSNFYATYYAASVKGRFTISRDDSKNTAYLQMNSLKTEDTAVYYCVRGRDYGSSYAMDYWGQGTLVTVSS VL: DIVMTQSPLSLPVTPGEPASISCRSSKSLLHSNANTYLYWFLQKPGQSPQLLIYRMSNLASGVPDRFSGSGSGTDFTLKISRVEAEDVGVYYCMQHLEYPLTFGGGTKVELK
3. Hu149-4 (antibody, human IgG1, V domains shown, humanized, human IgG1; also called Hu149-4 HuIgG1) VH: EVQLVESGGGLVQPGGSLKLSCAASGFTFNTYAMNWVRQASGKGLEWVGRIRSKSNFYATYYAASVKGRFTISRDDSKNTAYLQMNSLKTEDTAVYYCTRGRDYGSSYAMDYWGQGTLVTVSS VL: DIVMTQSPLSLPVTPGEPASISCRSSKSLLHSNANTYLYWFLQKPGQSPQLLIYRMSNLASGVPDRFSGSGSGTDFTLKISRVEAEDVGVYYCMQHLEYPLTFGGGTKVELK
4. Hu149-7 (antibody, V domains shown, humanized IgG) VH: EVQLVESGGGLVQPGGSLKLSCAASGFTFNTYAMNWVRQASGKGLEWVGRIRSKSNFYATAYAASVKGRFTISRDDSKNTAYLQMNSLKTEDTAVYYCVRGRDYGSSYAMDYWGQGTLVTVSS VL: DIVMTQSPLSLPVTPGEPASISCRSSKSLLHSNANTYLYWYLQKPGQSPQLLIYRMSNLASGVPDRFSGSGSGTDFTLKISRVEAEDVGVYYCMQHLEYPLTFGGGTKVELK

Response:
[7.82, 8.46, 10.29, 8.19]
